These measurements were taken from PubChem BioAssay AID2060486.

# System: IGROV1 complex spheroids (HUVEC, MSC), viability % test/control
# ASSAY DETAILS: Anticancer human tumor IGROV1 cell line growth inhibition [GQUAD]; active = viability on the fitted dose curve at most 10% of control; inactive = the rest;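 note: spheroids exposed to compounds for 7 days before readout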
# TEST PARAMETERS: second compound 0.0316 µM; first compound 0.316 µM
Write down the outcome that applies. Available outcomes: yes (active), no (inactive)

These recorded examples may help you get a feel for the data.
Prompt line: Hi, sorry to bother you, what did the test record for Cc1[nH]c2ccccc2c1CCNCc1ccc(/C=C/C(=O)NO)cc1 + CN(C)c1ccc(Nc2c3ccc(NC(=O)CCN4CCCC4)cc3nc3cc(NC(=O)CCN4CCCC4)ccc23)cc1 ?
Response line: yes

Prompt line: Hi, sorry to bother you, what did the test record for O=C(c1cc(Cc2n[nH]c(=O)c3ccccc23)ccc1F)N1CCN(C(=O)C2CC2)CC1 + Cc1cnc(CNC(=O)c2c(=O)c3ccc(N4CCCN(C)CC4)nc3n3c2sc2ccccc23)cn1 ?
Response line: no

Prompt line: Hi, sorry to bother you, what did the test record for COc1ccc([C@@H](O)c2cc(-c3ncnc4cc(N5CCOCC5)ccc34)c(F)cc2Cl)nn1 + Cc1[nH]c2ccc(F)cc2c1-c1nc2c3cccnc3c3ncccc3c2[nH]1 ?
Response line: no

---
Prompt line: Hi, sorry to bother you, what did the test record for O=C(c1cc(Cc2n[nH]c(=O)c3ccccc23)ccc1F)N1CCN(C(=O)C2CC2)CC1 + Cc1[nH]c2ccc(F)cc2c1-c1nc2c3cccnc3c3ncccc3c2[nH]1 ?
Response line: no

Prompt line: Hi, sorry to bother you, what did the test record for O=c1[nH]cc(F)c(=O)[nH]1 + Cc1[nH]c2ccc(F)cc2c1-c1nc2c3cccnc3c3ncccc3c2[nH]1 ?
Response line: no

Prompt line: Hi, sorry to bother you, what did the test record for O=C(NO)c1cnc(N2CCN(S(=O)(=O)c3ccc4ccccc4c3)CC2)nc1 + CN(C)c1ccc(Nc2c3ccc(NC(=O)CCN4CCCC4)cc3nc3cc(NC(=O)CCN4CCCC4)ccc23)cc1 ?
Response line: yes

Prompt line: Hi, sorry to bother you, what did the test record for O=c1[nH]cc(F)c(=O)[nH]1 + Cc1cnc(CNC(=O)c2c(=O)c3ccc(N4CCCN(C)CC4)nc3n3c2sc2ccccc23)cn1 ?
Response line: no

Prompt line: Hi, sorry to bother you, what did the test record for CC1COCCN1c1cc(C2(O)CC3CCC(C2)O3)c2cnn(-c3ccn[nH]3)c2n1 (stereo unspecified) + Cc1cnc(CNC(=O)c2c(=O)c3ccc(N4CCCN(C)CC4)nc3n3c2sc2ccccc23)cn1 ?
Response line: yes

Prompt line: Hi, sorry to bother you, what did the test record for COc1ncnc(C2CC2)c1-c1ncc2cnn(Cc3ccc(-c4nc(C(F)(F)F)cn4C(C)C)cc3)c2n1 + CN(C)c1ccc(Nc2c3ccc(NC(=O)CCN4CCCC4)cc3nc3cc(NC(=O)CCN4CCCC4)ccc23)cc1 ?
Response line: no

Prompt line: Hi, sorry to bother you, what did the test record for CC[C@@]1(O)C(=O)OCc2c1cc1n(c2=O)Cc2cc3c(CN(C)C)c(O)ccc3nc2-1 + CN(C)c1ccc(Nc2c3ccc(NC(=O)CCN4CCCC4)cc3nc3cc(NC(=O)CCN4CCCC4)ccc23)cc1 ?
Response line: no

Prompt line: Hi, sorry to bother you, what did the test record for CC(C)(O)C1CCC(Nc2ccc3ncc(-c4cccc(C(F)(F)F)c4)n3n2)CC1 (stereo unspecified) + Cc1[nH]c2ccc(F)cc2c1-c1nc2c3cccnc3c3ncccc3c2[nH]1 ?
Response line: no
